Tested on: Botrytis cinerea
Assay: Fungicidal activity, fungi growth rate method, BC
Assay type: cell-based
Conditions: Botrytis cinerea; 50 μg/mL; read-out: Fungicidal activity, inhibition, BC
Known inhibition at 50 µg/mL of a selection of compounds
VALUE_KIND: inhibition at 50 µg/mL (%)

{"MOLECULAR_STRING": "O=C(N/C(=C\\c1ccccc1)C(=O)N1CCC(O)(c2ccc(Br)cc2)CC1)c1ccco1", "MEASUREMENT_UNIT": "%", "REPORTED_VALUE": 24}
{"MOLECULAR_STRING": "O=C(O)/C(=C/c1ccccc1)NC(=O)c1ccc(C(F)(F)F)cc1", "MEASUREMENT_UNIT": "%", "REPORTED_VALUE": 20}
{"MOLECULAR_STRING": "CC(C)(C)OC(=O)N1CCC(c2nc(/C=C(\\NC(=O)c3ccccc3)C(=O)N3CCC(O)(c4ccc(Br)cc4)CC3)cs2)CC1", "MEASUREMENT_UNIT": "%", "REPORTED_VALUE": 7}
{"MOLECULAR_STRING": "O=C(N/C(=C\\c1ccccc1)C(=O)N1CCC(O)CC1)c1ccccc1", "MEASUREMENT_UNIT": "%", "REPORTED_VALUE": 12}
{"MOLECULAR_STRING": "O=C(OCc1ccc(Br)cc1)/C(=C/c1ccccc1)NC(=O)c1ccccc1", "MEASUREMENT_UNIT": "%", "REPORTED_VALUE": 18}
{"MOLECULAR_STRING": "O=C(N/C(=C\\c1cccs1)C(=O)N1CCC(O)(c2ccc(Br)cc2)CC1)c1ccccc1", "MEASUREMENT_UNIT": "%", "REPORTED_VALUE": 14}
{"MOLECULAR_STRING": "O=C(N/C(=C\\c1ccccc1)C(=O)N1CCC(O)(c2ccc(Br)cc2)CC1)c1ccccc1[N+](=O)[O-]", "MEASUREMENT_UNIT": "%", "REPORTED_VALUE": 8}
{"MOLECULAR_STRING": "O=C(N/C(=C\\c1ccccc1)C(=O)N1CCC(O)(c2ccc(Br)cc2)CC1)C1CCNCC1", "MEASUREMENT_UNIT": "%", "REPORTED_VALUE": 24}
{"MOLECULAR_STRING": "O=C(NC1CC1)/C(=C/c1ccccc1)NC(=O)c1ccccc1", "MEASUREMENT_UNIT": "%", "REPORTED_VALUE": 9}
{"MOLECULAR_STRING": "O=C(O)/C(=C/c1ccccc1)NC(=O)c1cccs1", "MEASUREMENT_UNIT": "%", "REPORTED_VALUE": 7}
{"MOLECULAR_STRING": "O=C(NCc1ccc(C(F)(F)F)cc1)/C(=C/c1ccccc1)NC(=O)c1ccccc1", "MEASUREMENT_UNIT": "%", "REPORTED_VALUE": 10}
{"MOLECULAR_STRING": "O=C(N/C(=C\\c1c[nH]cn1)C(=O)N1CCC(O)(c2ccc(Br)cc2)CC1)c1ccccc1", "MEASUREMENT_UNIT": "%", "REPORTED_VALUE": 14}
{"MOLECULAR_STRING": "O=C(NCc1ccc(Cl)cc1)/C(=C/c1ccccc1)NC(=O)c1ccccc1", "MEASUREMENT_UNIT": "%", "REPORTED_VALUE": 22}
{"MOLECULAR_STRING": "O=C(N/C(=C\\c1ccccc1)C(=O)N1CCC(O)(c2ccc(Br)cc2)CC1)c1ccc(Cl)cc1", "MEASUREMENT_UNIT": "%", "REPORTED_VALUE": 21}
{"MOLECULAR_STRING": "O=C(NC1CCCCC1)/C(=C/c1ccccc1)NC(=O)c1ccccc1", "MEASUREMENT_UNIT": "%", "REPORTED_VALUE": 10}
{"MOLECULAR_STRING": "O=C(N/C(=C\\c1cccc(C(F)(F)F)c1)C(=O)N1CCC(O)(c2ccc(Br)cc2)CC1)c1ccccc1", "MEASUREMENT_UNIT": "%", "REPORTED_VALUE": 8}
{"MOLECULAR_STRING": "CC(C)(C)OC(=O)N1CCC(c2nc(/C=C(\\NC(=O)c3ccccc3)C(=O)NCC(F)F)cs2)CC1", "MEASUREMENT_UNIT": "%", "REPORTED_VALUE": 40}
{"MOLECULAR_STRING": "O=C(NCc1ccc(Br)cc1)/C(=C/c1ccccc1)NC(=O)C1CC1", "MEASUREMENT_UNIT": "%", "REPORTED_VALUE": 18}
